test: recombinant UMI read abundance after kanamycin selection (control-corrected) (log10(CPM+1)); higher = more efficient recombination; extreme values may be limits of the assay; sequences stand for … in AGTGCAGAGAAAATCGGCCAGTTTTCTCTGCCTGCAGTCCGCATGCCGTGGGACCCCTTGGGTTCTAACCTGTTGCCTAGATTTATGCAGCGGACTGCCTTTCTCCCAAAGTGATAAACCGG…AGGTTGGTTTCACT; site = the 11-nt donor
Listed here: items and their measured recombinant UMI read abundance (log10).
Simply state the number, no unit and no words.

- seq text: "CTGCTACCATGGACCGGTTTTCCCGGTAATCCGTATTTGAT (site CTGCTACCTAG)"
  recombinant UMI read abundance (log10): 0.00723
- seq text: "ATACGCACATGGACCGGTTTTCCCGGTAATCCGTATTTGTT (site ATACGCACTAA)"
  recombinant UMI read abundance (log10): 1.29
- seq text: "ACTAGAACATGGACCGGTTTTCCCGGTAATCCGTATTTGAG (site ACTAGAACTCT)"
  recombinant UMI read abundance (log10): 1.72

Hello, please tell me recorded recombinant UMI read abundance (log10) for this one: TCATCTACATGGACCGGTTTTCCCGGTAATCCGTATTTGTG (site CCATCTACTCA)
0.00835

Hello, please tell me recorded recombinant UMI read abundance (log10) for this one: CTGCTACCATGGACCGGTTTTCCCGGTAATCCGTATTTGCC (site CTGCTACCTGG)
0

====

test: recombinant barcode read abundance after kanamycin selection (control-corrected) (log10(CPM+1)); higher = more efficient recombination; sequences stand for … in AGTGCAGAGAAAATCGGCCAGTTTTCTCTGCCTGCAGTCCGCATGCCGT…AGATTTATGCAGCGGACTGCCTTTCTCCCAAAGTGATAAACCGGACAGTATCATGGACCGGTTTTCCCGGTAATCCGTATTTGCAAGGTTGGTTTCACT; site = the 11-nt target
Listed here: items and their measured recombinant barcode read abundance (log10).
Simply state the number, no unit and no words.

- seq text: "GTCACTACTTGGGTTCTAACCTGTTGCAT (site AAGGTACCTCC)"
  quantitative readout: 0.139
- seq text: "GCAAAGCCTTGGGTTCTAACCTGTTGCCT (site GCACAGACTAG)"
  quantitative readout: 0.195
- seq text: "TGCGATACTTGGGTTCTAACCTGTTGCTT (site ACACGAGCTCT)"
  quantitative readout: 0.0799
- seq text: "CCAAGATCTTGGGTTCTAACCTGTTGCCT (site CGAAGATCTAG)"
  quantitative readout: 0.201
- seq text: "CATTATCCTTGGGTTCTAACCTGTTGCCT (site CACTATCCTAG)"
  quantitative readout: 0.161

Hello, please tell me recorded recombinant barcode read abundance (log10) for this one: ATGGGCACTTGGGTTCTAACCTGTTGCCT (site ATAGGAACTAG)
0.198

Hello, please tell me recorded recombinant barcode read abundance (log10) for this one: GAGGAAGCTTGGGTTCTAACCTGTTGCCT (site GCGGAAGCTAG)
0.545

Hello, please tell me recorded recombinant barcode read abundance (log10) for this one: ACCCAAACTTGGGTTCTAACCTGTTGCCT (site ACCCAAGCTAG)
0.161

Hello, please tell me recorded recombinant barcode read abundance (log10) for this one: GGGACCACTTGGGTTCTAACCTGTTGCTA (site TTCGGACCTCC)
0.0578

Hello, please tell me recorded recombinant barcode read abundance (log10) for this one: GTAGTTCCTTGGGTTCTAACCTGTTGCCT (site GTCGTTCCTAG)
0.0557
